Source listed as ChEMBL document CHEMBL1961873.

# SYSTEM NAME: Tyrosine-protein kinase receptor UFO (Homo sapiens)
# ASSAY SETUP: at 1 µM
# Description: GSK_PKIS: AXL mean inhibition at 1 uM [Nanosyn]
MEASURE NAME: inhibition (%)
Dear colleague, please return just the value in %, with no unit written.

Recorded results for 5 compounds are shown here.
May I ask what inhibition has been recorded for CN(c1ccc(NC(=O)NCCN2CCOCC2)cc1)c1ccnc(Nc2ccc(CS(C)(=O)=O)cc2)n1 ?
-4.88

May I ask what inhibition has been recorded for CNC(=O)c1sc(-n2cnc3cc(OC)c(OC)cc32)cc1OCc1ccccc1C(F)(F)F ?
-2.36

May I ask what inhibition has been recorded for CCS(=O)(=O)c1ccc(OC)c(Nc2ncc(-c3cccc(C(C)=O)c3)o2)c1 ?
-3.61

May I ask what inhibition has been recorded for COC(=O)Nc1nc2cc(Oc3ccc(NC(=O)Nc4ccccc4)cc3)ccc2[nH]1 ?
-3.64

May I ask what inhibition has been recorded for CCS(=O)(=O)c1ccc(OC)c(Nc2ncc(-c3cccc(F)c3)o2)c1 ?
-5.62

Next up:
May I ask what inhibition has been recorded for NC(=O)c1ccc2c(-c3ccnc(NCCCO)n3)c(-c3ccc(F)cc3)nn2c1 ?
0.42

###

# SYSTEM NAME: MAP kinase-interacting serine/threonine-protein kinase 2 (Homo sapiens) (UniProt Q9HBH9)
# Sequence (Q9HBH9 whole entry, looked up): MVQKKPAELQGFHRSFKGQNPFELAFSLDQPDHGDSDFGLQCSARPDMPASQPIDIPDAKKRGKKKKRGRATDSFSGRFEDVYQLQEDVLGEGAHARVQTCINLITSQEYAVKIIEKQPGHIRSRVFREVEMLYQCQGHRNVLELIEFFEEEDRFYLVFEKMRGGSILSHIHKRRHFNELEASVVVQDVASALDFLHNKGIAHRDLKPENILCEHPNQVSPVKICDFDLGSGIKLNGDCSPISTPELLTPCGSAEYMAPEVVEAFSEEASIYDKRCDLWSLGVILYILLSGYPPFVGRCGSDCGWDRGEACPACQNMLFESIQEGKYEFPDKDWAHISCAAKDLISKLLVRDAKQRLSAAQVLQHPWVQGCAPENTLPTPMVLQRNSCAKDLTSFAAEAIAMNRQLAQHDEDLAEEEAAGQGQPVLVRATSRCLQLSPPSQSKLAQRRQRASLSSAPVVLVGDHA
# ASSAY SETUP: at 0.1 µM
# Description: GSK_PKIS: MNK2 mean inhibition at 0.1 uM [Nanosyn]
MEASURE NAME: inhibition (%)
Dear colleague, please return just the value in %, with no unit written.

Recorded results for 5 compounds are shown here.
May I ask what inhibition has been recorded for COC(=O)Nc1nc2cc(Oc3ccc(NC(=O)Nc4ccccc4)cc3)ccc2[nH]1 ?
1.92

May I ask what inhibition has been recorded for COc1ccc2ncn(-c3cc(O[C@H](C)c4ccccc4C(F)(F)F)c(C(N)=O)s3)c2c1 ?
0.74

May I ask what inhibition has been recorded for CNC(=O)c1cncc(/C=C/c2ccccc2C)c1 ?
2.12

May I ask what inhibition has been recorded for O=C(O[C@H]1CN[C@H](C#Cc2cc3ncnc(Nc4ccc5c(ccn5Cc5cc(F)ccc5F)c4)c3s2)C1)N1CCOCC1 ?
1.3

May I ask what inhibition has been recorded for CCS(=O)(=O)c1ccc(OC)c(Nc2ncc(-c3cccc(F)c3)o2)c1 ?
1.15

---
May I ask what inhibition has been recorded for CC(C)c1ccc(-c2cc(-c3c[nH]nc3-c3ccccn3)ccn2)cc1 ?
0.97

May I ask what inhibition has been recorded for FC(F)(F)CNc1nccc(-c2cnn3ncccc23)n1 ?
2.55

May I ask what inhibition has been recorded for CCn1c(-c2nonc2N)nc2cncc(C(=O)NCCNC)c21 ?
0.78

May I ask what inhibition has been recorded for Cc1c2ccc(N(C)c3ccnc(Nc4cccc(S(N)(=O)=O)c4)n3)cc2nn1C ?
-0.12

May I ask what inhibition has been recorded for COc1cccc(-n2ncc3c(N/N=C/c4ccc(C(=O)NCCN(C)C)cc4)ncnc32)c1 ?
28.7

###

# SYSTEM NAME: Calcium/calmodulin-dependent protein kinase type II subunit alpha (Homo sapiens);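 also: reported values are averages (mean inhibition of CAMK2A)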
# ASSAY SETUP: at 0.1 µM
MEASURE NAME: inhibition (%)
Dear colleague, please return just the value in %, with no unit written.

May I ask what inhibition has been recorded for COc1cccc(Nc2nccc(-c3cnn4ncccc34)n2)c1 ?
4.77

May I ask what inhibition has been recorded for COc1cc2c(cc1Nc1nc(Nc3cccc(F)c3C(N)=O)c3cc[nH]c3n1)N(C(=O)CN1CCN(C(C)C)CC1)CC2 ?
2.3

---
May I ask what inhibition has been recorded for Cc1nnc(-c2cccc(-c3ccc(C(=O)NCC4CC4)cc3)c2)o1 ?
5.78
